Overview of reported pKd across a group of binders:
# measurementTarget: T1, human IL-11Rα (form used in the assay not stated) (human, UniProt Q14626 23-363, limits assumed)
# T1 construct: also called hIL-11R; hIL-11Rα
# T1 sequence: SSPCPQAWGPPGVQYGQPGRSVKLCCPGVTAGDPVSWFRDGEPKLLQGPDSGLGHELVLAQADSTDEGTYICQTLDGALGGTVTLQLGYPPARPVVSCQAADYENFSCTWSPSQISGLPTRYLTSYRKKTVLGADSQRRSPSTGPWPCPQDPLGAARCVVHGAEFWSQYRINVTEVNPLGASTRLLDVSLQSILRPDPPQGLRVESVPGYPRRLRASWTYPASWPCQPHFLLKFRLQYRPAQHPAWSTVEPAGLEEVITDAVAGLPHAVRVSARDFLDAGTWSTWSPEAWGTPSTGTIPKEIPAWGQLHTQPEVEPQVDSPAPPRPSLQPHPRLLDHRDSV
# assayName: Biacore, pH 8.5, 37°C
pKd: −log10 of the molar value.
property: pKd

# binder, property, observedValue
measured = [
    ("hu8E2-TS-29 (antibody, V domains shown) VH: EVQLLESGGGLVQPGGSLRLSCAASGFTFSWYSMTWVRQAPGKGLEWVSSIVPSGGHTQYADSVKGRFTISRDNSKNTLYLQMNSLRAEDTAVYYCAKGPGWGSFDLWGRGTLVTVSS VL: DIQMTQSPSSLSASVGDRVTITCQASQDINNYLNWYQQKPGKAPKLLIYDASNLQTGVPSRFSGSGSGTDFTFTISSLQPEDIATYYCQQSEEQSPTFGPGTKVDIK", "pKd", 8.97),
    ("hu8E2-TS-57 (antibody, V domains shown) VH: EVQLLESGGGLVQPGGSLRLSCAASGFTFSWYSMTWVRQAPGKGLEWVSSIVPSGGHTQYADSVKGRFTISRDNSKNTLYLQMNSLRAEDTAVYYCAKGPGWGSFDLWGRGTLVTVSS VL: DIQMTQSPSSLSASVGDRVTITCQASQDINNYLNWYQQKPGKAPKLLIYDASNLQTGVPSRFSGSGSGTDFTFTISSLQPEDIATYYCQQYETQMPLFGPGTKVDIK", "pKd", 9.18),
]
